assay: Standard protocol for determination of kcat and KM (continuous spectrophotometric assay, Acetyl CoA hydrolysis at 235 nm); format: biochemical; details: purified protein; about 23° C.; 20 mM HEPES pH 6.8, 10% ethylene glycol, 0.2 mM acetyl CoA
Listed here: items and their measured log10 of Kcat.
Values below are the log10 of the recorded Kcat, with s⁻¹ as the unit.

The following molecules have reported results that may help.
>  <molecule>
SEQ ID NO: 409: GAT polypeptide (protein, 6_5G9, GAT polypeptide) MIEVKPINAEDTYEIRHRILRPNQPLEACMYETDLLGGTFHLGGYYRGKLISIASFHQAEHSELEGQKQYQLRGMATLEEYREQKAGSTLIRHAEELLRKKGADLLWCNARISASGYYKKLGFSEQGGVYDIPPVGPHILMYKKLT

>  <recorded endpoint>
log10 of Kcat

>  <recorded number>
-0.22

$$$$
>  <molecule>
SEQ ID NO: 342: GAT polypeptide (protein, 16H3, GAT polypeptide) MIDVKPINAEDTYEIRHRILRPNQPLEACKYETDLLGGTFHLGGYYQGKLISIASFHQAEHSELEGQKQYQLRGMATLEGYREQKAGSTLIRHAEELLRKKGADLLWCNARTSVSGYYEKLGFSEQGEVYDIPPIGPHILMYKKLT

>  <recorded endpoint>
log10 of Kcat

>  <recorded number>
-1.23

$$$$

Query: Provide log10 of Kcat value for the following molecule: SEQ ID NO: 468: GAT polypeptide (protein, 1_1H5, GAT polypeptide) MIEVKPINAEDTYEIRHRILRPNQPLEACMYESDLLRGSFHLGGFYRGKLISIASFHQAEHSDLEGQKQYQLRGMATLEGYRDQKAGSSLIRHAEQILRKRGADLLWCNARTTAAGYYKRLGFSEQGEVFDTPPVGPHILMYKKLT
Response: 0.20

Query: Provide log10 of Kcat value for the following molecule: SEQ ID NO: 513: GAT polypeptide (protein, GAT2_19H8, GAT polypeptide) MIEVKPINAEDTYEIRHRILRPNQPLEACMYETDLLGGTFHLGGYYRGKLISIASFHQAEHPELEGQKQYQLRGMATLEGYREQKAGSTLIRHAEELLRKKGADLLWCNARTSVSGYYEKLGFSEQGEVCDIPPIGPHILMYKKLT
Response: -1.17

Query: Provide log10 of Kcat value for the following molecule: SEQ ID NO: 423: GAT polypeptide (protein, 9_15D5, GAT polypeptide) MIEVKPINAEDTYEIRHRILRPNQPLDACKYETDLLGGTFHLGGYYRGKLISIASFHQAEHPELEGQKQYQLRGMATLEGYREQKAGSTLIRHAEELLRKKGADLLWCNARTSASGYYKKLGFSEQGEVYDIPPVGPHILMYKKLT
Response: -0.34

Query: Provide log10 of Kcat value for the following molecule: SEQ ID NO: 324: GAT polypeptide (protein, 14_8F7, GAT polypeptide) MIEVKPINAEDTYEIRHRILRPNQPLEACKYETDLLGGTFHLGGYYRGKLVSIASFHQAEHPELEGQKQYQLRGMATLEEYREQKAGSTLIRHAEALLRKKGADLLWCNARTSASGYYKKLGFSEQGEVYDIPPTGPHILMYKKLT
Response: 0.18

Reference for the values: patent US8008547B2
